target desc: human RORγ (Homo sapiens)
Construct: from Ser253 to Lys518 for human RORγ; expressed in transfected cells; host or cells: CHO cells (transient co-transfection with pG5-Luc)
Sequence (P51449 253-518): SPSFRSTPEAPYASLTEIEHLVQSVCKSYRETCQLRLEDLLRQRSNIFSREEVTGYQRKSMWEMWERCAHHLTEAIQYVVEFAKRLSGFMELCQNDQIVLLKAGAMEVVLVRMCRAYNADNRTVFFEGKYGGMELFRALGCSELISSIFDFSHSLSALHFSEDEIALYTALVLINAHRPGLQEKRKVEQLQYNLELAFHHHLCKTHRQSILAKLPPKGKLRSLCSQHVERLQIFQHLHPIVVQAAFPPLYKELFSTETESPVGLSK
protocol details: In-vitro reporter gene assay for inhibitory activity against RORγ transcription, Test Method A (GAL4-hRORγ LBD / pG5-Luc in CHO cells)
Assay type: cell-based
condition notes: luciferase reporter, 2 days
measured metric: EC50 (µM)
Answers are plain numbers, in µM.

In the examples that follow, each entry is paired with its recorded EC50.
[ask] Requested read-out: EC50. Entry: CC1CCC[C@]2(c3ccc(CCC(C)(C)C)c(Cl)c3)NC(=O)N(C34CC(C(=O)O)(C3)C4)C=C12 (single isomer, unassigned) [Example 78]
[reply] 2.2

[ask] Requested read-out: EC50. Entry: CC(C)(C)CCc1ccc(C23COC(C)(C)C2=CN(CCC(=O)O)C(=O)N3)cc1Cl (single isomer, unassigned) [Example 5]
[reply] 0.007

[ask] Requested read-out: EC50. Entry: CC1CCCC2(c3ccc(CCC(C)(C)C)c(Cl)c3)NC(=O)N(CCC(=O)O)C=C12 (racemic) [Example 57]
[reply] 0.034

[ask] Requested read-out: EC50. Entry: CC(C)(C)CCc1ccc([C@]23CCCCC2=CN(CCC(=O)O)C(=O)N3)cc1Cl (single isomer, unassigned) [Example 40]
[reply] 4.64

[ask] Requested read-out: EC50. Entry: CC(C)(C)CCc1ccc(C23CCCC2=CN(CCC(=O)O)C(=O)N3)cc1Cl (racemic) [Example 24]
[reply] 0.332

Required: EC50, one value per molecule below.
1. CC1=C2CCCCC2(c2ccc(CCC(C)(C)C)c(Cl)c2)NC(=O)N1CCC(=O)O (racemic) [Example 42]
2. CC(C)(C)CCc1ccc(C23CCCCC2=CN(CCC(=O)O)C(=O)N3)cc1Cl (racemic) [Example 39]
3. CC(C)(C)CCc1ccc(C23CCCC(CC(N)=O)C2=CN(CCC(=O)O)C(=O)N3)cc1Cl (racemic) [Example 51]

[reply]
[0.29, 0.032, 4.97]

Required: EC50, one value per molecule below.
1. CC(C)(C)CCc1ccc(C23CCC(C)(C)C2=CN(CCCC(=O)O)C(=O)N3)cc1 (racemic) [Example 2]
2. COC1CC[C@]2(c3ccc(CCC(C)(C)C)c(Cl)c3)NC(=O)N(C34CC(C(=O)O)(C3)C4)C=C2C1 (single isomer, unassigned) [Example 76]
3. CC(C)(C)CCc1ccc(C23CCCC(CCO)C2=CN(CCC(=O)O)C(=O)N3)cc1Cl (racemic) [Example 44]
4. CC1CCC2(c3ccc(CCC(C)(C)C)c(Cl)c3)NC(=O)N(CCC(=O)O)C=C2C1 (single isomer, unassigned) [Example 66]
5. COCCC1CCC2(c3ccc(CCC(C)(C)C)c(Cl)c3)NC(=O)N(CCC(=O)O)C=C12 (single isomer, unassigned) [Example 27]
6. COCCC1CCCC2(c3ccc(CCC(C)(C)C)c(Cl)c3)NC(=O)N(CCC(=O)O)C=C12 (racemic) [Example 46]
7. CC(C)(C)CCc1ccc(C23CC(C)(C)CCC2=CN(CCC(=O)O)C(=O)N3)cc1Cl (racemic) [Example 64]
8. COC1CC[C@@]2(c3ccc(CCC(C)(C)C)c(Cl)c3)NC(=O)N(C34CC(C(=O)O)(C3)C4)C=C2C1 (single isomer, unassigned) [Example 77]

[reply]
1. 0.03
2. 2.41
3. 1.27
4. 0.024
5. 0.027
6. 0.302
7. 0.034
8. 0.024

Required: EC50, one value per molecule below.
1. CCOC(=O)CCN1C=C2C(CC(=O)O)CCCC2(c2ccc(CCC(C)(C)C)c(Cl)c2)NC1=O (racemic) [Example 45]
2. CC(C)(C)CCc1ccc([C@@]23COC(CO)C2=CN(CCC(=O)O)C(=O)N3)cc1Cl (single isomer, unassigned) [Example 18]

[reply]
1: 1.63; 2: 0.773
